Biological target: MAST1, Q9Y2H9
Sequence (Q9Y2H9 962-1065): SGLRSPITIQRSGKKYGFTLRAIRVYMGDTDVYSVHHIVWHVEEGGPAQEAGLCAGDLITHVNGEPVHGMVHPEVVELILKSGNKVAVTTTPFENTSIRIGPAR
Assay: holdup assay
Set-up: key: below the threshold = too weak to quantify, mostly under pKd 3.1 to 4
Conditions: plain residues with an end cap or a label only (N-terminal biotin on a linker: ado-ado)
Measured pKd by item
// return a plain number; no unit text

| Binder | pKd |
| --- | --- |
| SAGADSETHC [SLCO1B1, Q9Y6L6] | 3.9 |
| RDYTQSSSSL [GRM5, P41594] | 4.67 |
| IKLETKKTKL [SLC15A2, Q16348] | 4.86 |

query: Identify pKd associated with the binder FHSIKQSTAV [CRHR1, P34998]
result: 4.74
